Cited source: patent US20190064177A1

Provide the recorded fluorescence for the entries that follow.
# target.system: Diaphorase
# assay.summary: peptide array, 1 uM labeled diaphorase, with FAD

Query: # fluorescence lookup, item DLDKAFGGSG
Result: 2050

Query: # fluorescence lookup, item VERASYNLDGSG
Result: 2240

Query: # fluorescence lookup, item RNWYGGS [RNWYGGSG]
Result: 2940

Query: # fluorescence lookup, item YNRNAKSSGGSG
Result: 1550

Query: # fluorescence lookup, item RWQYYNQKFGSG
Result: 5460

Query: # fluorescence lookup, item KEAPGPRFGGSG
Result: 8280

Query: # fluorescence lookup, item LKQLFLEGGSG
Result: 2470

Query: # fluorescence lookup, item YRLNLKHPVGGSG
Result: 4150

Query: # fluorescence lookup, item WLDLGVFPYQHLGSG
Result: 3430

Query: # fluorescence lookup, item YRPYGPVYNGGSG
Result: 6760

Query: # fluorescence lookup, item YSVDYWYQVDGSG
Result: 10400

Query: # fluorescence lookup, item PRYSGQYGGSG
Result: 3230

Query: # fluorescence lookup, item YRFPNAQSPGGSG
Result: 2370

Query: # fluorescence lookup, item RQAYLFGGSG
Result: 4480

Query: # fluorescence lookup, item KNRPYNKDLEDGSG
Result: 5150

Query: # fluorescence lookup, item KHSFQKELGGSG
Result: 728

Query: # fluorescence lookup, item RWYKNGGSG
Result: 3660

Query: # fluorescence lookup, item YSALFGLQEDGSG
Result: 2100

Query: # fluorescence lookup, item RLYPQGYGGSG
Result: 4540

Query: # fluorescence lookup, item RAQYAQYLFGGSG
Result: 3160
